System: KM12 colon
Experiment: NCI tumour cell line growth inhibition, 48 h
GI50 reference

| COMPOUND | STUDY_SYSTEM | GI50 |
| --- | --- | --- |
| CCOc1nc(-c2ccccc2)cc2c(O)c(-c3nnco3)[nH]c(=O)c12 | KM12 colon | 4140 nM |
| COc1ccc(C2CC(c3cccc(Nc4ccncc4)c3)=NN2c2cc(Cl)cc(Cl)c2)cc1 (stereo not drawn) | KM12 colon | 1770 nM |
| COc1cc(Nc2cn[nH]c2-c2ccc(Cl)cc2)cc(OC)c1OC | KM12 colon | 2830 nM |

---

Test system: MOLT-4 leukemia
Assay: NCI tumour cell line growth inhibition, 48 h; in the data active = GI50 below about 0.43 µM; inactive = the rest
Classes used: active, inactive

| COMPOUND | CATEGORY_LABEL |
| --- | --- |
| CC(C)c1ccc(Nc2ccc3c(OCCCN4CCN(C)CC4)cccc3n2)cc1 | inactive |
| COc1ccc(N(C)c2ncnc3occ(C)c23)cc1 | active |
| COc1ccc(N2C(=O)C(c3ccccc3)(c3ccccc3)C23C(=O)N(C)c2ccccc23)cc1 (configuration not stated) | inactive |
| O=C(c1ccccc1)c1cc(Cl)ccc1OCCCCN1CCN(CCCCOc2ccc(Cl)cc2C(=O)c2ccccc2)CC1 | inactive |
| OCCN1CN(CCO)CN(c2nc(N3CN(CCO)CN(CCO)C3)nc(N3CN(CCO)CN(CCO)C3)n2)C1 | inactive |
| C/C(=C\CCc1ccoc1)CC/C=C(\C)CCCC1=CC(=O)OC1 | inactive |
| Clc1coc2nc3ccccc3c(Nc3ccc4c(c3)OCO4)c12 | inactive |
| O=S(=O)(Nc1cc(F)cc(Cl)c1)c1ccc(-c2cnc(C3CC3)o2)cc1 | inactive |
| C[As](C)SC1OC(CO)C(O)C1O (configuration not stated) | active |
| CCC[CH2][Sn]([CH2]CCC)([CH2]CCC)[O]C(=O)CC | active |
| O=C(OCc1ccc2cccc(O)c2n1)N1CCN(C(=O)c2cc3cc(F)ccc3[nH]2)CC1 | active |
| Cn1cc(C2=C(c3ccc4ccccc4c3)C(=O)NC2=O)c2ccccc21 | inactive |

---

Tested on: NCI-H460 lung
Possible outcomes: class 1 = active, class 0 = inactive

| COMPOUND | CATEGORY_LABEL |
| --- | --- |
| CNCCNc1c2c(c(NCCNC)c3c(CN(C)C)c[nH]c13)C(=O)c1ccccc1C2=O | class 0 |
| CC1OC2CC(=O)OC2C2=C1C(=O)c1c(O)cccc1C2=O (centres undefined) | class 1 |
| COc1ccc2c(c1)CCC1C2CC[C@@]2(C)C1CC1=CC(COC(C)=O)C3C(=O)c4ccccc4C(=O)C3C12 (some centres undefined) | class 0 |
| COc1ccc(N(C)c2ncnc3occ(C)c23)cc1 | class 1 |

---

Reported TGI is given for each of the following compounds.
System: SF-539 CNS
Test: NCI tumour cell line growth inhibition, 48 h

| COMPOUND | STUDY_SYSTEM | TGI |
| --- | --- | --- |
| O=C(Nc1nc2ncn(CCI)c2c(=O)[nH]1)c1ccccc1 | SF-539 CNS | > 64.6 µM |
| COc1ccc(N=C2SC(=N/N=c3\sc4ccccc4n3C)SC2=Nc2ccc(OC)cc2)cc1 | SF-539 CNS | > 100 µM |
| CC(=O)Oc1cccc2c(/C=N/NC(N)=S)ncc(C)c12 | SF-539 CNS | 1.98 µM |
| CC1OC2CC(=O)OC2C2=C1C(=O)c1c(O)cccc1C2=O (stereo unspecified) | SF-539 CNS | 0.284 µM |
| N#C/C(C(=O)Nc1ccccc1)=C(/N)N1CCOCC1 | SF-539 CNS | > 100 µM |
| CCCCCCCCCC/C=C/CC(=O)SCCNC(=O)CCNC(=O)[C@@H](O)C(C)(C)COP(=O)(O)OP(=O)(O)OCC1OC(n2cnc3c(N)ncnc32)C(O)C1OP(=O)(O)O (stereo partly specified) | SF-539 CNS | > 10 µM |
| CC1OC(n2cc(F)c(=O)[nH]c2=O)C=CC1O (stereo unspecified) | SF-539 CNS | > 100 µM |
| CCC(C)(C)/C(CC(O)(C(F)(F)F)C(F)(F)F)=N\O | SF-539 CNS | > 100 µM |
| CNC(=S)NC1CCCCC1NC(=S)NC (stereo unspecified) | SF-539 CNS | > 100 µM |
| CC(=O)Nc1cc(C(=O)Nc2cc(C(=O)N3CC(CCl)c4c3cc(N)c3ccccc43)nn2C)nn1C (stereo unspecified) | SF-539 CNS | 0.0549 µM |
| O=C1OC(c2ccccc2)=N/C1=C/C=C/c1ccco1 | SF-539 CNS | > 100 µM |
| O=C1CN=C(C[N+](=O)[O-])c2ccccc21 | SF-539 CNS | > 100 µM |
| CNC(=S)N(C)C(=S)Nn1c(=O)c(C)nn(C)c1=S | SF-539 CNS | > 100 µM |
| CC(=O)Nc1ccc(C(=O)NN2C(=O)C(Cl)C2c2ccccc2)cc1 (stereo unspecified) | SF-539 CNS | > 100 µM |
| C=C(CCCCC)CN1CCCC1[C@@](C)(O)CC(=O)OCC (stereo partly specified) | SF-539 CNS | > 100 µM |
| C=C(C=O)C1CCC2(C(=O)O)CCC3(C)C(CCC4C5(C)CCC(O)C(C)(C)C5CCC43C)C12 (stereo unspecified) | SF-539 CNS | 8.06 µM |
| C#Cc1cccc(Nc2ncnc3cc(OC)c(OCCCCCCC(=O)NO)cc23)c1 | SF-539 CNS | 1.34 µM |
| CC(=O)OC1CCC2(C)C3CCC4(C)C(c5ccc(=O)oc5)CC5OC54C3CCC2(O)C1 (stereo unspecified) | SF-539 CNS | 2.78 µM |
| CC(C)(C)C(=O)OCC1CCC[N+]2(C)CCCCC12 (stereo unspecified) | SF-539 CNS | > 100 µM |
| COc1ccc(N2C(=O)C(c3ccccc3)(c3ccccc3)C23C(=O)N(C)c2ccccc23)cc1 (stereo unspecified) | SF-539 CNS | > 100 µM |
| COC(=O)C(C(=O)C(=O)Nc1cccc(OC)c1)c1cnc2ccccc2n1 (stereo unspecified) | SF-539 CNS | > 100 µM |
| Cc1ccccc1N1C(=O)/C(=C/c2ccc(N(CCC#N)CCC#N)cc2)N=C1c1cc([N+](=O)[O-])ccc1Cl | SF-539 CNS | > 100 µM |
| CC(C)(C)c1cc(C(P(=O)(c2ccccc2)c2ccccc2)P(=O)(c2ccccc2)c2ccccc2)cc(C(C)(C)C)c1O | SF-539 CNS | 3.88 µM |
| CC[N+](CC)(CCNCC(N)=O)CC(N)=O | SF-539 CNS | > 10 µM |
| O=C(Nc1ccc(OS(=O)(=O)c2ccccc2)cc1)C12CC3CC(CC(C3)C1)C2 | SF-539 CNS | > 100 µM |
| O=[N+]([O-])c1ccc(/C=N/n2c(CO)nc3ccccc32)o1 | SF-539 CNS | 55 µM |
| c1ccc2sc(C3(N4CCCC4)CCCCCC3)cc2c1 | SF-539 CNS | 41.2 µM |
| CCOC(=O)/C=C/C(C(=O)/C=C/c1ccc(OC2CCCCO2)c(OC)c1)=C(O)\C=C\c1ccc(OC2CCCCO2)c(OC)c1 (stereo unspecified) | SF-539 CNS | 53.1 µM |
| COc1cc(C2c3cc4c(cc3OC(N3CCCC3)C2C)OCO4)cc(OC)c1O (stereo unspecified) | SF-539 CNS | 41.2 µM |
| CCSc1n/c(=C\c2ccco2)c2nnnn12 | SF-539 CNS | > 100 µM |
| CNn1c(-c2ccccc2)n[nH]c1=O | SF-539 CNS | > 100 µM |
| Cc1ccc(S(=O)(=O)N/N=C/C(=C/c2ccc(Cl)cc2)CC(/C=N/NS(=O)(=O)c2ccc(C)cc2)=C\c2ccc(Cl)cc2)cc1 | SF-539 CNS | 34.2 µM |
| CC(C)C1OC23CCCCC2C(C#N)(C#N)C1(C#N)C(=N)O3 (stereo unspecified) | SF-539 CNS | 39.4 µM |
| CCOC(=O)C1=CC(C)(C(=O)OCC)Nc2c(nc(OC)n(C)c2=O)N1 (stereo unspecified) | SF-539 CNS | > 10 µM |
| CC(=O)O.CC(=O)O.CC(=O)O.CC(=O)O.CC(=O)O.CC(=O)O.O.[Ti].[Ti] | SF-539 CNS | > 100 µM |
| CS(=O)(=O)N/N=C/CN1C(=O)c2ccccc2C1=O | SF-539 CNS | > 100 µM |
| Cc1nnc(S(=O)(=O)c2ccc(N=Nc3c(N)nc(N)nc3N)cc2)s1 | SF-539 CNS | > 100 µM |
| C[C@]12C=CC(=O)C=C1CC[C@H]1[C@@H]3C[C@@H](O)[C@](O)(C(=O)CO)[C@@]3(C)C[C@H](O)[C@@]12F | SF-539 CNS | > 100 µM |
| COc1ccc(C2CC(c3cccc(Nc4ccncc4)c3)=NN2c2cc(Cl)cc(Cl)c2)cc1 (stereo unspecified) | SF-539 CNS | 3.14 µM |
| COc1ccccc1C1C(C(=O)O)=C(CO)Oc2cc3c(cc21)OCO3 (stereo unspecified) | SF-539 CNS | > 100 µM |
| CNCCCn1cc(C2=C(c3cn(C)c4ccccc34)C(=O)NC2=O)c2ccccc21 | SF-539 CNS | 7.06 µM |
